Cited source: the supplement of paper PMC10567573

Would you mind telling me the reported protein stability index of each entry?
B1: ZNF8 (parent)
chain: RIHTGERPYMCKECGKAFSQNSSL

variants of: B1; assay: protein stability index of a GFP-peptide fusion (GPS, HEK-293T) (PSI 1-6); higher = more stable; conditions: c terminus: a fixed tail appended;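 note: lentivirally expressed fusions sorted by FACS into six bins by GFP to DsRed ratio, PSI derived from sequencing read proportions per bin multiplied by bin number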

Req: // protein stability index lookup, key: `T4R`
Resp: 2.04

Req: protein stability index lookup needed for `K16E` , thanks.
Resp: 2.97

Req: Look at this variant and give its reported protein stability index. `L24R`
Resp: 2.55

Req: Give the measured protein stability index of `E13G` .
Resp: 1.94

Req: Item under review: `E6Y` . Reported protein stability index?
Resp: 1.88

Req: I have this variant here, `P8M` , and I need its recorded protein stability index.
Resp: 2.98

Req: Report protein stability index for `A17H` please.
Resp: 2.42

Req: What value of protein stability index has been reported for the following variant? `S22H`
Resp: 2

Req: Given the entry `A17R` , report its measured protein stability index.
Resp: 3.04

Req: # query: protein stability index of entry `L24Q`
Resp: 3.21

Req: What value of measured protein stability index is listed for `I2K` ?
Resp: 2.51

Req: Request the reported protein stability index associated with `E13N`
Resp: 2.35

Req: protein stability index lookup needed for `M10I` , thanks.
Resp: 2.69

Req: Query: protein stability index; subject: `S19T`
Resp: 2.35

Req: # lookup: protein stability index of `C11A`
Resp: 2.73

Req: For the variant `I2P` , what protein stability index is on record?
Resp: 3.72

Req: Looking for the measured protein stability index of `R1F` , can you help?
Resp: 1.97

Req: Which protein stability index value is on record for `K12C` ?
Resp: 2.16

Req: Given `C11W` , state its recorded protein stability index.
Resp: 1.98

Req: Request the reported protein stability index associated with `F18V`
Resp: 2.83

Req: Give the measured protein stability index of `T4L` .
Resp: 2.16

Req: Reported protein stability index for `N21F` : what is it?
Resp: 1.8
